# target.entity: 5-LOX (Oryctolagus cuniculus, UniProt P12530)
# Construct: 15-lipoxygenase from rabbit reticulocytes; from tissue; host or cells: rabbit reticulocytes
# Sequence (P12530 2-663): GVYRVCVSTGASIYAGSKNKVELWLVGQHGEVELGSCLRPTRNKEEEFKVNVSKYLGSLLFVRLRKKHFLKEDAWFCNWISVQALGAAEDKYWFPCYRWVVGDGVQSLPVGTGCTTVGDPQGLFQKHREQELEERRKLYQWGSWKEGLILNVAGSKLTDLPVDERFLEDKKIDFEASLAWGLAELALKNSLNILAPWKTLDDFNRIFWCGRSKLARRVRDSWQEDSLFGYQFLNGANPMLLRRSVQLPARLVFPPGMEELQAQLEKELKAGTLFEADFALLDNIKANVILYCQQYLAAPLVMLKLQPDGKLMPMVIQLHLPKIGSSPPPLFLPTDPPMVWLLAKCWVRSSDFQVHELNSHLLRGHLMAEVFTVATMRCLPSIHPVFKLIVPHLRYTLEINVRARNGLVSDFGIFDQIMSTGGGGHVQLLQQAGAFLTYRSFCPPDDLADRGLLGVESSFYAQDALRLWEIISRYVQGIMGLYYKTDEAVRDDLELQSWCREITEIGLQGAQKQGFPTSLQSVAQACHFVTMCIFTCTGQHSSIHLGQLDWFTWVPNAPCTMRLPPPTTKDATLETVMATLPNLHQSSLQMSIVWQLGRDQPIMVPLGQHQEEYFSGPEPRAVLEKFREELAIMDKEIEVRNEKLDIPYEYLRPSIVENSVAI
# test: Lipoxygenase activity, oxygraphic (Table 4 column headed 5-LOX; method describes 15-lipoxygenase)
# Format: biochemical, rabbit
# test.parameters: 265 μmol/l potassium linoleate, pH 7.4, 25° C., 5 minutes preincubation (method of 15-lipoxygenase); read-out: 5-LOX IC50
# Protocol: Prostaglandin H synthase is prepared from the seminal vesicles of sheep (F. S. Van der Ouderaa, M. Buytenhek.: Methods Enzymol. 86, 60-68 (1982)), and 15-lipoxygenase from rabbit reticulocytes (T. Schewe, R. Wiesner, S. M. Rapoport: Methods Enzymol. 71, 430-441 (1981)). Both enzymatic activities are measured oxygraphically at 25° C. […]
readout.name: IC50

I would be grateful if you could share the reported IC50 for CC(=O)Oc1ccccc1C(=O)O [acetylsalicylic acid, reference compound] .
> 1000 µM
